Source of measurements: paper PMC10786891

Molecular target: T1, EsCas13d, nuclease-dead (Eubacterium siraeum, UniProt B0MS50, R295A;H300A;R849A;H854A)
T1 sequence: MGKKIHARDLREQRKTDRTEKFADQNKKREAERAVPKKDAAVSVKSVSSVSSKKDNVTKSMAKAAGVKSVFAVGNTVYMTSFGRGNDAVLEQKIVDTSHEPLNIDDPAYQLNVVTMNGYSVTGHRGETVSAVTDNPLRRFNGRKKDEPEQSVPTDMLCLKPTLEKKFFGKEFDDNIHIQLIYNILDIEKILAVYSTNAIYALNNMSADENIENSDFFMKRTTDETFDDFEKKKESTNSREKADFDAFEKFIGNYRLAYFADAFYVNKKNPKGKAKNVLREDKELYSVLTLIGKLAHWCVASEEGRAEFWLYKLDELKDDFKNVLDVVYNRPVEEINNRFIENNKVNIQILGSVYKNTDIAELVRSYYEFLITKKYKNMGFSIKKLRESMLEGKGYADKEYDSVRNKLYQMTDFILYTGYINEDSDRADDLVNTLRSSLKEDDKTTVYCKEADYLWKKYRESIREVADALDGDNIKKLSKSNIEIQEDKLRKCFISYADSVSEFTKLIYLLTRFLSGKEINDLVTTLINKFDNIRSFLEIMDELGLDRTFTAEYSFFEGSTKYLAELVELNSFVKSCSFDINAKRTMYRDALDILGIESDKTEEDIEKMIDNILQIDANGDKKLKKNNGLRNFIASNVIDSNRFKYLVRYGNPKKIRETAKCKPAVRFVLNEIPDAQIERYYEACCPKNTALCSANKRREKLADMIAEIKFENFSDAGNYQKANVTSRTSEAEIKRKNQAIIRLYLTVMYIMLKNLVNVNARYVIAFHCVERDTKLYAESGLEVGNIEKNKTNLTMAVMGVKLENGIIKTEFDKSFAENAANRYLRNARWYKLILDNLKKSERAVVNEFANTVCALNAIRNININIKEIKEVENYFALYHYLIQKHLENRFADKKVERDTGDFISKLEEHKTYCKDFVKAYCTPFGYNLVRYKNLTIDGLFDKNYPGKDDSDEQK
Assay: crRNA (strand 1, pre-loaded); Mg2+; 40 mM Tris-HCl pH 7.5, 150 mM NaCl, 6 mM MgCl2, 1 mM DTT, 0.1% Tween-20, 0.2 mg/ml BSA; 25 C; 10 min per concentration, then washed
Settings: tags: His6-TwinStrep-SUMO cleaved; N-terminal SNAP kept (SNAP-Surface 488); label: 3' end held by stalled T7 RNA polymerase

>  <BINDER>
target 3 G19U,U20A (mixed) RNA 1: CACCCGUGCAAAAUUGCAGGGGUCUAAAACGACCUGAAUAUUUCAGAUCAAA RNA 2: GGGAAUGGAUCCACAUCUACGAAUUCGUUUUAUAUCUGAAAUAUUCAGGUCUGCAGAUCGGAAGAGCACACGU

>  <MEASURE_UNIT>
nM

>  <Kd>
90

$$$$
>  <BINDER>
target 2 MT 5'PFS AAG 3'PFS AAA (mixed) RNA 1: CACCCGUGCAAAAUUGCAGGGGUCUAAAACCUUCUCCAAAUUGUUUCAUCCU RNA 2: GGGAAUGGAUCCACAUCUACGAAUUCAAGAGGAUGAAACAAUUUGGAGAAGAAAAGAUCGGAAGAGCACACGU

>  <MEASURE_UNIT>
nM

>  <Kd>
3.7

$$$$
>  <BINDER>
target 1 C6G,C21U (mixed) RNA 1: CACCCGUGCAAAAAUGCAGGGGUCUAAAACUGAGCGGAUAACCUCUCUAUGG RNA 2: GGGAAUGGAUCCACAUCUACGAAUUCGUACUAUAGAGAGGUUAUCGGCUCACCGAGAUCGGAAGAGCACACGU

>  <MEASURE_UNIT>
nM

>  <Kd>
5.38

$$$$
>  <BINDER>
target 1 C6A,A18G (mixed) RNA 1: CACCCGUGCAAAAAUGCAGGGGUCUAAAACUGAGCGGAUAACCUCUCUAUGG RNA 2: GGGAAUGGAUCCACAUCUACGAAUUCGUACCAUGGAGAGGUUAUCAGCUCACCGAGAUCGGAAGAGCACACGU

>  <MEASURE_UNIT>
nM

>  <Kd>
98

$$$$
>  <BINDER>
target 1 MT 5'PFS CAC 3'PFS CUA (mixed) RNA 1: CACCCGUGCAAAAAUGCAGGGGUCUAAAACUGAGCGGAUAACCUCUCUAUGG RNA 2: GGGAAUGGAUCCACAUCUACGAAUUCCACCCAUAGAGAGGUUAUCCGCUCACUAAGAUCGGAAGAGCACACGU

>  <MEASURE_UNIT>
nM

>  <Kd>
16

$$$$
>  <BINDER>
target 3 insA 3' of 7,insC 3' of 7 (mixed) RNA 1: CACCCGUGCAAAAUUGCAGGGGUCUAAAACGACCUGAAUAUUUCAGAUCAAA RNA 2: GGGAAUGGAUCCACAUCUACGAAUUCGUUUUUGAUCUGAAAUAUUACCAGGUCUGCAGAUCGGAAGAGCACACGU

>  <MEASURE_UNIT>
nM

>  <Kd>
48

$$$$
>  <BINDER>
target 3 insU 3' of 6,insG 3' of 2 (mixed) RNA 1: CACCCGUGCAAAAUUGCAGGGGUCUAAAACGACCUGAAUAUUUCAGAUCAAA RNA 2: GGGAAUGGAUCCACAUCUACGAAUUCGUUUUUGAUCUGAAAUAUUCUAGGUGCUGCAGAUCGGAAGAGCACACGU

>  <MEASURE_UNIT>
nM

>  <Kd>
28

$$$$
>  <BINDER>
target 2 MT 5'PFS GGC 3'PFS CAC (mixed) RNA 1: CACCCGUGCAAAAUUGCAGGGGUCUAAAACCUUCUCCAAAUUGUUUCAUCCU RNA 2: GGGAAUGGAUCCACAUCUACGAAUUCGGCAGGAUGAAACAAUUUGGAGAAGCACAGAUCGGAAGAGCACACGU

>  <MEASURE_UNIT>
nM

>  <Kd>
15.8

$$$$
>  <BINDER>
target 1 insC 3' of 14,insG 3' of 6 (mixed) RNA 1: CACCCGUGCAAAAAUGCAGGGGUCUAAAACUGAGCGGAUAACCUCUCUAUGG RNA 2: GGGAAUGGAUCCACAUCUACGAAUUCGUACCAUAGAGACGGUUAUCCGGCUCACCGAGAUCGGAAGAGCACACGU

>  <MEASURE_UNIT>
nM

>  <Kd>
54

$$$$
>  <BINDER>
target 1 MT 5'PFS GCU 3'PFS AUU (mixed) RNA 1: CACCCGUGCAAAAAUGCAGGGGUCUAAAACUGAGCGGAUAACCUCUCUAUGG RNA 2: GGGAAUGGAUCCACAUCUACGAAUUCGCUCCAUAGAGAGGUUAUCCGCUCAAUUAGAUCGGAAGAGCACACGU

>  <MEASURE_UNIT>
nM

>  <Kd>
76

$$$$
>  <BINDER>
target 1 MT 5'PFS UAU 3'PFS ACA (mixed) RNA 1: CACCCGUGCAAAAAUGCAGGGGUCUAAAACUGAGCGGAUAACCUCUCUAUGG RNA 2: GGGAAUGGAUCCACAUCUACGAAUUCUAUCCAUAGAGAGGUUAUCCGCUCAACAAGAUCGGAAGAGCACACGU

>  <MEASURE_UNIT>
nM

>  <Kd>
54

$$$$
>  <BINDER>
target 3 insG 3' of 9,insU 3' of 5 (mixed) RNA 1: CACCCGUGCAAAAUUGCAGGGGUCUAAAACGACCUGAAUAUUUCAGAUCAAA RNA 2: GGGAAUGGAUCCACAUCUACGAAUUCGUUUUUGAUCUGAAAUAGUUCAUGGUCUGCAGAUCGGAAGAGCACACGU

>  <MEASURE_UNIT>
nM

>  <Kd>
65.5

$$$$
>  <BINDER>
target 2 MT 5'PFS CUU 3'PFS UAA (mixed) RNA 1: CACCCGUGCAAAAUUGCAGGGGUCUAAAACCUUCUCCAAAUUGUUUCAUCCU RNA 2: GGGAAUGGAUCCACAUCUACGAAUUCCUUAGGAUGAAACAAUUUGGAGAAGUAAAGAUCGGAAGAGCACACGU

>  <MEASURE_UNIT>
nM

>  <Kd>
3

$$$$
>  <BINDER>
target 1 insA 3' of 19,insU 3' of 12 (mixed) RNA 1: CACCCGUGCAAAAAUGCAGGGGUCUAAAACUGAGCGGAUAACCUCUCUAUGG RNA 2: GGGAAUGGAUCCACAUCUACGAAUUCGUACCAUAAGAGAGGUUUAUCCGCUCACCGAGAUCGGAAGAGCACACGU

>  <MEASURE_UNIT>
nM

>  <Kd>
17.9

$$$$
>  <BINDER>
target 2 MT 5'PFS GAU 3'PFS AAG (mixed) RNA 1: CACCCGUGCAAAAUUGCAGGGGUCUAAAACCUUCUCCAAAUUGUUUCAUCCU RNA 2: GGGAAUGGAUCCACAUCUACGAAUUCGAUAGGAUGAAACAAUUUGGAGAAGAAGAGAUCGGAAGAGCACACGU

>  <MEASURE_UNIT>
nM

>  <Kd>
11.8

$$$$
